# measurement.target: T1, natural human IL-23 from activated THP-1 cells (human, UniProt P29460 23-328)
# T1 sequence 1: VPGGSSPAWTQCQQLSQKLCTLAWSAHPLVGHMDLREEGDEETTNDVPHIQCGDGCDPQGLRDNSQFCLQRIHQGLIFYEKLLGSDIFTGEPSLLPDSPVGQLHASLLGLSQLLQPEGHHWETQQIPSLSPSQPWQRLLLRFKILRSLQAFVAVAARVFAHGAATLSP
# T1 sequence 2: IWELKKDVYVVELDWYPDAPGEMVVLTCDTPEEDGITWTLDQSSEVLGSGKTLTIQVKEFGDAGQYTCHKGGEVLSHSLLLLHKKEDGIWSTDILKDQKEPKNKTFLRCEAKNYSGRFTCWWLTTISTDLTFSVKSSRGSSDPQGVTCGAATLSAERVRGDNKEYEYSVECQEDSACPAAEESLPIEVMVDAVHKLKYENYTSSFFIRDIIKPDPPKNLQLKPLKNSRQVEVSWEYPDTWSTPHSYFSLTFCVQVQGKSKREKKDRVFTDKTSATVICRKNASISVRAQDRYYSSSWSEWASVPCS
# test.summary: cell-based or functional assay
Record form. Attribute: IC50, IL-23 stimulated IL-17 production from mouse splenocytes. Fill in for each entry.

Illustrative cases are given below, each with its answer.
>>> experimental_result("31H9 (antibody, V domains shown, Mouse monoclonal antibody from hybridoma; also called 31H9vk; 31H9vh) VH: EVQLQQSGPELVKPGASVKMSCKASGYTFTRYLMHWVKQKPGQGLEWIGYINPYNDGTNYNEKFKGKATLTSDKSSSTAYMELSSLTSEDSAVYYCSLNWDYAYWGQGTLVTVSA VL: DIVMTQSPATLSVTPGDRVSLSCRASQSISDYLHWYQQKSHESPRLLIKYASQSISGIPSRFSGSGSGSDFTLSINSVEPEDVGVYYCQNGHSFPYTFGGGTKLEIK")
"2 nM"
>>> experimental_result("15C11 (antibody, V domains shown, Mouse monoclonal antibody from hybridoma; also called 15C11vk; 15C11vh) VH: EVQLQQSGPVLVKPGASVKMSCKASGYTFTDYYMNWVKQSHGKSLEWIGVIIPYNGGTSYNQKFKGKATLTVDKSSSTAYMELNSLTSEDSAVYYCARDGHRWYFDVWGTGTTVTVSS VL: DVVMTQTPLSLPVSLGDQASISCRSSQSLVHSNGNTYLHWYLQKPGQSPKLLIYKVSNRFSGVPDRFSGSGSGTDFTLKINRVEAEDLGVYFCSQSTHVPYTFGGGTQLEIK")
"0.232 nM"

Then there is this binder:
Antibody A (antibody, human IgG1, kappa, L234A L235A, V domains shown, Humanized 6B8, human IgG1-KO (L234A/L235A) / kappa; also called 6B8-IgG1KO-2 with IgK-66; 6B8CVH-02 / 6B8CVK-66) VH: QVQLVQSGAEVKKPGSSVKVSCKASGYTFTDQTIHWMRQAPGQGLEWIGYIYPRDDSPKYNENFKGKVTITADKSTSTAYMELSSLRSEDTAVYYCAIPDRSGYAWFIYWGQGTLVTVSS VL: DIQMTQSPSSLSASVGDRVTITCKASRDVAIAVAWYQQKPGKVPKLLIYWASTRHTGVPSRFSGSGSRTDFTLTISSLQPEDVADYFCHQYSSYPFTFGSGTKLEIKR has a reported IC50, IL-23 stimulated IL-17 production from mouse splenocytes of 0.001 nM
